Origin of measurements: patent US6268395A

System: protein kinase C (PKC)
Type: biochemical, mouse
Details: 2.7 μg/mL; relative to TPA positive control
Procedure: After addition of 0.55 nM [γ-^32 P] ATP (50×10^3 cpm/nmol), the reaction mixture was mixed and allowed to be kept at 37° C. for 30 minutes. Then the reactions were terminated by the addition of 10 μl of ice-cold stop reagent. Aliquots of 35 μL were transferred to the center of peptide binding discs. After 10 minutes, the discs were washed two times with 75 mM orthophosphoric acid. The activity of ^32 P-labeled samples was counted in 10/mL of a scintillation fluid for 1 minute. […]

{"molecule": "CCCCC/C=C\\C/C=C\\CCCCCCCC(=O)OCC1=C[C@H]2[C@@H]3C(C)(C)[C@]3(OC(C)=O)[C@H](OC(C)=O)[C@@H](C)[C@]2(O)[C@@H]2C=C(C)C(=O)[C@@]2(O)C1 [Compound 13, Phorbol-12,13-diacetate-20-linoleate]", "% Activity of PKC": "44%"}
{"molecule": "CC(=O)OCC1=C[C@H]2[C@@H]3C(C)(C)[C@]3(OC(C)=O)[C@H](OC(C)=O)[C@@H](C)[C@]2(O)[C@@H]2C=C(C)[C@H](O)[C@@]2(O)C1", "% Activity of PKC": "26%"}
{"molecule": "CCCCCCCCCC(=O)O[C@@H]1[C@@H](C)[C@@]2(O)[C@@H](C=C(CO)C[C@]3(O)C(=O)C(C)=C[C@@H]23)[C@@H]2C(C)(C)[C@]12OC(=O)C(C)CC (some centres unmarked)", "% Activity of PKC": "0%"}
{"molecule": "CC(=O)OCC1=C[C@H]2[C@@H]3C(C)(C)[C@]3(OC(C)=O)[C@H](OC(C)=O)[C@@H](C)[C@]2(O)[C@@H]2C=C(C)C(=O)[C@]2(O)C1 [Compound 21, 4α-Phorbol-12,13,20-triacetate]", "% Activity of PKC": "39%"}
{"molecule": "CC1=C[C@@H]2[C@@H](CC(CO)=C[C@H]3[C@@H]4C(C)(C)[C@]4(O)[C@H](O)[C@@H](C)[C@]23O)C1=O", "% Activity of PKC": "25%"}
{"molecule": "CCCCCCCCCCCCCC(=O)O[C@@H]1[C@@H](C)[C@@]2(O)[C@@H](C=C(COC(C)=O)C[C@]3(O)C(=O)C(C)=C[C@@H]23)[C@@H]2C(C)(C)[C@]12OC(C)=O", "% Activity of PKC": "30%"}
{"molecule": "CC(=O)OCC12CC3(O)C(=O)C1(C)C1C3C3(O)C(C)C(OC(C)=O)C4(OC(C)=O)C(C3C12)C4(C)C (centres unmarked) [Compound 24, Lumiphorbol-12,13,20-triacetate]", "% Activity of PKC": "93%"}
{"molecule": "C/C=C(\\C)C(=O)O[C@@H]1[C@@H](C)[C@@]2(O)[C@@H](C=C(CO)C[C@]3(O)C(=O)C(C)=C[C@@H]23)[C@@H]2C(C)(C)[C@]12OC(=O)C(C)CC (some centres unmarked)", "% Activity of PKC": "40%"}
{"molecule": "C/C=C(\\C)C(=O)O[C@@]12[C@H](O)[C@@H](C)[C@@]3(O)[C@@H](C=C(COC(=O)CCCCCCC/C=C\\C/C=C\\CCCCC)C[C@]4(O)C(=O)C(C)=C[C@@H]34)[C@@H]1C2(C)C", "% Activity of PKC": "32%"}
{"molecule": "C=C(C)C1C(OC(C)=O)=CC(C)C2(O)C1C=C(COC(=O)CCCCCCC/C=C\\C/C=C\\CCCCC)CC1(O)C(=O)C(C)=CC12 (centres unmarked)", "% Activity of PKC": "24%"}
{"molecule": "CCCC(=O)OCC1=C[C@H]2[C@@H]3C(C)(C)[C@]3(OC(=O)CCC)[C@H](OC(=O)CCC)[C@@H](C)[C@]2(O)[C@@H]2C=C(C)C(=O)[C@]2(O)C1 [Compound 22, 4α-Phorbol-12,13,20-tributyrate]", "% Activity of PKC": "0%"}
{"molecule": "CO[C@]12CC(COC(C)=O)=C[C@H]3[C@@H]4C(C)(C)[C@]4(OC(C)=O)[C@H](OC(C)=O)[C@@H](C)[C@]3(O)[C@@H]1C=C(C)C2=O [Compound 16, 4-O-Methylphorbol-12,13,20-triacetate]", "% Activity of PKC": "0%"}
{"molecule": "CCCCCCCCCCCC(=O)O[C@@]12[C@H](OC(=O)C(C)CC)[C@@H](C)[C@@]3(O)[C@@H](C=C(CO)C[C@]4(O)C(=O)C(C)=C[C@@H]34)[C@@H]1C2(C)C (some centres unmarked)", "% Activity of PKC": "30%"}
{"molecule": "C/C=C(\\C)C(=O)O[C@@]12[C@H](OC(C)=O)[C@@H](C)[C@@]3(O)[C@@H](C=C(CO)C[C@]4(O)C(=O)C(C)=C[C@@H]34)[C@@H]1C2(C)C [Compound 3, 12-O-Acetylphorbol-13-tigliate]", "% Activity of PKC": "30%"}
{"molecule": "CC1=C[C@H]2[C@@]3(O)[C@H](C)[C@@H](OC(=O)c4ccccc4)[C@]4(OC(=O)c5ccccc5)[C@H]([C@@H]3C=C(COC(=O)c3ccccc3)C[C@]2(O)C1=O)C4(C)C [Compound 12, Phorbol-12,13,20-tribenzoate]", "% Activity of PKC": "100%"}
{"molecule": "CC1=C[C@H]2[C@@]3(O)[C@H](C)[C@@H](O)[C@]4(O)[C@H]([C@@H]3C=C(CO)C[C@@]2(O)C1=O)C4(C)C", "% Activity of PKC": "5%"}
{"molecule": "CCCCCCCCCC(=O)O[C@@]12[C@H](OC(C)=O)[C@@H](C)[C@@]3(O)[C@@H](C=C(CO)C[C@]4(O)C(=O)C(C)=C[C@@H]34)[C@@H]1C2(C)C [Compound 6, 12-O-Acetylphorbol-13-decanoate]", "% Activity of PKC": "17%"}
{"molecule": "CC1=C[C@H]2[C@@]3(O)[C@H](C)[C@@H](O)[C@]4(O)[C@H]([C@@H]3C=C(CO)C[C@]2(O)C1=O)C4(C)C", "% Activity of PKC": "39%"}
{"molecule": "CC(=O)OCC1=C[C@H]2[C@@H]3C(C)(C)[C@]3(OC(C)=O)[C@H](OC(C)=O)[C@@H](C)[C@]2(O)[C@@H]2C=C(C)C(=O)[C@@]2(O)C1 [Compound 11, Phorbol-12,13,20-triacetate]", "% Activity of PKC": "15%"}
{"molecule": "CC(=O)O[C@@]12[C@H](O)[C@@H](C)[C@@]3(O)[C@@H](C=C(CO)C[C@]4(O)C(=O)C(C)=C[C@@H]34)[C@@H]1C2(C)C", "% Activity of PKC": "14%"}
